Values compiled from the supplement of paper PMC10338343.

tested on: EfPiwi piRISC loaded with piRNA #1 (26 nt); assay: pre-steady-state target cleavage rate (min^-1); auxiliary factor: 500 nM Ephydatia muelleri Gtsf1; guide: piRNA #1 5'p-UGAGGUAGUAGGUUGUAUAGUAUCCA; higher = faster piRNA-guided slicing of the target
Consider the following sequences; for each one, report its pre-steady-state target cleavage rate.
Output spec: single numeric token, no unit.

Lookup: Notebook entry, EfPiwi piRISC loaded with piRNA #1 (26 nt) assay: pre-steady-state target cleavage rate of "GGAGUGGAUAGUAUACAACCAACUACCUCA" = ?
Found: 0.00306

Lookup: Notebook entry, EfPiwi piRISC loaded with piRNA #1 (26 nt) assay: pre-steady-state target cleavage rate of "GGAGACCAUAUUAUACAACCUACUACCUCA" = ?
Found: 0.116

Lookup: Notebook entry, EfPiwi piRISC loaded with piRNA #1 (26 nt) assay: pre-steady-state target cleavage rate of "GGAGUGGAUACUAUACUACCAACUACCUCA" = ?
Found: 0.00428

Lookup: Notebook entry, EfPiwi piRISC loaded with piRNA #1 (26 nt) assay: pre-steady-state target cleavage rate of "GGAGUGGAUACUUUACUACCUACUACCUCA" = ?
Found: 0.00437

Lookup: Notebook entry, EfPiwi piRISC loaded with piRNA #1 (26 nt) assay: pre-steady-state target cleavage rate of "GGAGUCGAUAGUAUACAACCUACUACCUCA" = ?
Found: 0.0054

Lookup: Notebook entry, EfPiwi piRISC loaded with piRNA #1 (26 nt) assay: pre-steady-state target cleavage rate of "GGAGUCGUUACUAUACAACCUACUACCUCA" = ?
Found: 0.0129

Lookup: Notebook entry, EfPiwi piRISC loaded with piRNA #1 (26 nt) assay: pre-steady-state target cleavage rate of "GGAGUGGAUACUAUACAACCUCACUACCUCA" = ?
Found: 0.00417

Lookup: Notebook entry, EfPiwi piRISC loaded with piRNA #1 (26 nt) assay: pre-steady-state target cleavage rate of "GGAGACGAUACUAUACAACUACUACCUCA" = ?
Found: 0.00742

Lookup: Notebook entry, EfPiwi piRISC loaded with piRNA #1 (26 nt) assay: pre-steady-state target cleavage rate of "GGAGUGGAUACUAUACACCCUACUACCUCA" = ?
Found: 0.0673

Lookup: Notebook entry, EfPiwi piRISC loaded with piRNA #1 (26 nt) assay: pre-steady-state target cleavage rate of "GGAGACCUAAAUAUACAACCUACUACCUCA" = ?
Found: 0.0102

Lookup: Notebook entry, EfPiwi piRISC loaded with piRNA #1 (26 nt) assay: pre-steady-state target cleavage rate of "GGAGACGAUACAAUACAACCUACAACCUCA" = ?
Found: 0.00274

Lookup: Notebook entry, EfPiwi piRISC loaded with piRNA #1 (26 nt) assay: pre-steady-state target cleavage rate of "GGAGACGAUACUACACAACCUACUACCUCA" = ?
Found: 0.00692

Lookup: Notebook entry, EfPiwi piRISC loaded with piRNA #1 (26 nt) assay: pre-steady-state target cleavage rate of "GGAGAGGAUACUAUACUACCUAGUACCUCA" = ?
Found: 0.00301

----------
Consider the following sequences; for each one, report its pre-steady-state target cleavage rate.
tested on: MILI (PIWIL2) piRISC loaded with piRNA #1 (26 nt); assay: pre-steady-state target cleavage rate (min^-1); guide: piRNA #1 5'p-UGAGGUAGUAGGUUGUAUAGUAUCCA; higher = faster piRNA-guided slicing of the target; conditions: auxiliary factor: 500 nM mouse GTSF1;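 further: 1 nM active piRISC with 0.1 nM target library at 33 °C single turnover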
Output spec: single numeric token, no unit.

Lookup: Given the entry "GGAGUGGAUACUAUACAACCUACUACGAGA" , report its measured pre-steady-state target cleavage rate.
Found: 0.0112

Lookup: Given the entry "GGAGUGGAUACGUAUACAACCUACUACCUCA" , report its measured pre-steady-state target cleavage rate.
Found: 0.111

Lookup: Given the entry "GGAGAGGAUACUAUACAACCUACUCCCUCA" , report its measured pre-steady-state target cleavage rate.
Found: 0.0191

Lookup: Given the entry "GGAGACCUAACUAUACAACCUAUUACCUCA" , report its measured pre-steady-state target cleavage rate.
Found: 0.0965

Lookup: Given the entry "GGAGUGGUUACUAUACAACCUAGUACCUCA" , report its measured pre-steady-state target cleavage rate.
Found: 0.0547

Lookup: Given the entry "GGAGAGGUUAGUAUACAACCUACUACCUCA" , report its measured pre-steady-state target cleavage rate.
Found: 0.0314

Lookup: Given the entry "GGAGACCAUACUAUACAACCUACUACCACA" , report its measured pre-steady-state target cleavage rate.
Found: 0.231

Lookup: Given the entry "GGAGAGGAUACUAUACAACCCUACUACCUCA" , report its measured pre-steady-state target cleavage rate.
Found: 0.0028

Lookup: Given the entry "GGAGAGGAUACUAUACAUCCUUCUACCUCA" , report its measured pre-steady-state target cleavage rate.
Found: 0.0216

Lookup: Given the entry "GGAGACCUUACUAUACAACCAACUACGUCA" , report its measured pre-steady-state target cleavage rate.
Found: 0.00333

Lookup: Given the entry "GGAGAGGAAACUAUACAACCUACAACCUCA" , report its measured pre-steady-state target cleavage rate.
Found: 0.122

Lookup: Given the entry "GGAGACCAUACUAUACAACCUACUAUCUCA" , report its measured pre-steady-state target cleavage rate.
Found: 0.136

Lookup: Given the entry "GGAGACGAUACUAUCAACCUACUACCUCA" , report its measured pre-steady-state target cleavage rate.
Found: 0.14

----------
tested on: MILI (PIWIL2) piRISC loaded with L1MC piRNA (26 nt); assay: pre-steady-state target cleavage rate (min^-1); guide: L1MC piRNA 5'p-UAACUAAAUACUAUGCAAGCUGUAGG; higher = faster piRNA-guided slicing of the target; conditions: auxiliary factor: 500 nM mouse GTSF1;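 further: 1 nM active piRISC with 0.1 nM target library at 33 °C single turnover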
Consider the following sequences; for each one, report its pre-steady-state target cleavage rate.
Output spec: single numeric token, no unit.

Lookup: Given the entry "UCCUGCUACAGUUGCAUAGUAUUUAGUUA" , report its measured pre-steady-state target cleavage rate.
Found: 0.256

Lookup: Given the entry "UCCUGGAUGAGCUUGCUUACUAUUUAGUUA" , report its measured pre-steady-state target cleavage rate.
Found: 0.0357

Lookup: Given the entry "UCCUCCUACAGCUUGCAUAGUAUUUAGUCA" , report its measured pre-steady-state target cleavage rate.
Found: 0.303

Lookup: Given the entry "UCCUGGUACAGCUUGCAUAGAAUUUAGUAA" , report its measured pre-steady-state target cleavage rate.
Found: 0.0567

Lookup: Given the entry "UCCUGCUAGAGCUUGCAUAGUAUUUAGUUA" , report its measured pre-steady-state target cleavage rate.
Found: 0.198

Lookup: Given the entry "UCCUGGAACAGCUAGGAUAGUAUUUAGUUA" , report its measured pre-steady-state target cleavage rate.
Found: 0.26

Lookup: Given the entry "UCCUCCUACAGUUGCAUAGUAUUUAGUUA" , report its measured pre-steady-state target cleavage rate.
Found: 0.255

Lookup: Given the entry "UCCUGGAUGUCGUUGCAUAGUAUUUAAGUUA" , report its measured pre-steady-state target cleavage rate.
Found: 0.191

Lookup: Given the entry "UCCUGGAUCAGCUUGCAUAGUAUUUUAGUUA" , report its measured pre-steady-state target cleavage rate.
Found: 0.23

Lookup: Given the entry "UCCUGCUACAGCUUGCAUAGUUUUUAGAAA" , report its measured pre-steady-state target cleavage rate.
Found: 0.0163

Lookup: Given the entry "UCCUGGAUGUCCUUGCAUAGUAUAUUAGUUA" , report its measured pre-steady-state target cleavage rate.
Found: 0.188

Lookup: Given the entry "UCCUGCUACAGGUUGCAUAGUAUUAAGUUA" , report its measured pre-steady-state target cleavage rate.
Found: 0.208

Lookup: Given the entry "UCCUGGAUGAGCAUGCAUAGUAAUUAGUUA" , report its measured pre-steady-state target cleavage rate.
Found: 0.156

----------
test system: EfPiwi piRISC loaded with L1MC piRNA (26 nt); assay: pre-steady-state target cleavage rate (min^-1); auxiliary factor: 500 nM Ephydatia muelleri Gtsf1; guide: L1MC piRNA 5'p-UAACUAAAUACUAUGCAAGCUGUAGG; MIWI and MILI are mouse PIWI proteins and EfPiwi is from a freshwater sponge; tags in brackets are library labels; higher = faster piRNA-guided slicing of the target
Consider the following sequences; for each one, report its pre-steady-state target cleavage rate.
Output spec: single numeric token, no unit.

Lookup: Given the entry "UCCUCCUUGUGCUUGCAUAGUAUUUAGUAA" , report its measured pre-steady-state target cleavage rate.
Found: 0.00675

Lookup: Given the entry "UCCUGGAACUCCUUGCAUAGUAUUUAGUUA" , report its measured pre-steady-state target cleavage rate.
Found: 0.0352

Lookup: Given the entry "UCCUGGAUGUGCUUGUCAUAGUAUUUAGUUA" , report its measured pre-steady-state target cleavage rate.
Found: 0.00492

Lookup: Given the entry "UCCUCCUACAGCUACCAUAGUAUUUAGUUA" , report its measured pre-steady-state target cleavage rate.
Found: 0.00393

Lookup: Given the entry "UCCUGGAACAGGUUGCAUAGAAUUUAGUUA" , report its measured pre-steady-state target cleavage rate.
Found: 0.00258

Lookup: Given the entry "UCCUCCUACAGCUUGCAUAGUAUUUAGUCUA" , report its measured pre-steady-state target cleavage rate.
Found: 0.00459
